Sourced from ChEMBL document CHEMBL3991601

MEASURED_ON: Non-receptor tyrosine-protein kinase TNK1 (Homo sapiens)
Sequence (Q13470 whole entry): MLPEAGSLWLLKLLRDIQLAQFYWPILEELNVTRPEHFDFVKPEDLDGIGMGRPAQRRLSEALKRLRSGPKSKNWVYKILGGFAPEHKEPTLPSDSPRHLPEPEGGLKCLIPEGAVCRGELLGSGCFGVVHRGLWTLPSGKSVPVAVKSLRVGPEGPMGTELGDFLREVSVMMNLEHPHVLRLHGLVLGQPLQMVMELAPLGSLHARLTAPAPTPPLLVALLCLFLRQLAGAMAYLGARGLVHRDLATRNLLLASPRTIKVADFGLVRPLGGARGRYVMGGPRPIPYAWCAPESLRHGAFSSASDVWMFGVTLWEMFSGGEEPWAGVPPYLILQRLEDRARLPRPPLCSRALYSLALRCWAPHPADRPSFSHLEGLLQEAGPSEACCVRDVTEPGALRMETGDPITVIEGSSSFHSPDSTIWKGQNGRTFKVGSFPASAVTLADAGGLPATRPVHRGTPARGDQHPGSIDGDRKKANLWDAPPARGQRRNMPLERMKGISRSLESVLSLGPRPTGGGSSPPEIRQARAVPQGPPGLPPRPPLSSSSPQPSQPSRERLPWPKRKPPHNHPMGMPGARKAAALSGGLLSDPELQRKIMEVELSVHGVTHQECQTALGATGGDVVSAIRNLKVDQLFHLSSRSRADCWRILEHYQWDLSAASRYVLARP
Calls of active or inactive are those of the source.
Form entry, call: pick from active, inactive

Solved entries:
COMPOUND	MEASURED_ON	LABEL_CLASS
O=C1NC(=O)[C@@H](c2cn3c4c(cccc24)CCC3)[C@@H]1c1c[nH]c2ccccc12 [TIVANTINIB]	Non-receptor tyrosine-protein kinase TNK1 (Homo sapiens)	inactive
CNC(=O)c1nn(C)c2c1C(C)(C)Cc1cnc(Nc3ccc(N4CCN(C)CC4)cc3)nc1-2	Non-receptor tyrosine-protein kinase TNK1 (Homo sapiens)	active
COCC(=O)NC/C=C/c1ccc2ncnc(Nc3ccc(Oc4ccc(C)nc4)c(C)c3)c2c1	Non-receptor tyrosine-protein kinase TNK1 (Homo sapiens)	inactive
CN1C/C=C/CCOc2cccc(c2)-c2ccnc(n2)Nc2cccc(c2)C1	Non-receptor tyrosine-protein kinase TNK1 (Homo sapiens)	inactive
COc1ccc(S(=O)(=O)N(C(C)=O)c2ccccc2/C=C/c2cc[n+]([O-])cc2)cc1	Non-receptor tyrosine-protein kinase TNK1 (Homo sapiens)	inactive

## Task What call does the record list for O=C(Nc1nc2cccc(-c3ccc(CN4CCS(=O)(=O)CC4)cc3)n2n1)C1CC1 ?
## Result inactive

## Task Check CC(=O)NCC(=O)N1[C@@H]2CC[C@H]1c1ccc(Nc3ncc(C(F)(F)F)c(NC4CCC4)n3)cc12 too.
## Result active

## Task Check CN(C[C@@H]1COCCO1)S(=O)(=O)Nc1ccc2ccc3ncc(-c4cnn(C)c4)cc3c(=O)c2c1 too.
## Result inactive

## Task Check Cc1nc(NC(=O)N2CCC[C@H]2C(N)=O)sc1-c1ccnc(C(C)(C)C(F)(F)F)c1 too.
## Result inactive

## Task Check O=C(Nc1cc(C(F)(F)F)cc(C(F)(F)F)c1)c1cc(Cl)ccc1O too.
## Result inactive

## Task Check N#CC1(c2ccc(NC(=O)c3cccnc3NCc3ccncc3)cc2)CCCC1 too.
## Result inactive

## Task Check Cc1cc(Nc2ncnc3ccc(NC4=NC(C)(C)CO4)cc23)ccc1Oc1ccn2ncnc2c1 too.
## Result inactive

## Task Check COc1ncc(-c2ccc3nccc(-c4ccnnc4)c3c2)cc1NS(=O)(=O)c1ccc(F)cc1F too.
## Result inactive

## Task Check CNC(=O)c1cccc2cc(Oc3ccnc4cc(OCC5(N)CC5)c(OC)cc34)ccc12 too.
## Result inactive

## Task Check Cn1cc(-c2cnc3ccc4ccc(CS(=O)(=O)NCc5ccccn5)cc4c(=O)c3c2)cn1 too.
## Result inactive
